# STUDY SYSTEM: unphosphorylated c-KIT kinase (uKIT, Seq. ID no. 2) (Homo sapiens, UniProt P10721)
# Sequence (P10721 with tags, fused parts or gaps): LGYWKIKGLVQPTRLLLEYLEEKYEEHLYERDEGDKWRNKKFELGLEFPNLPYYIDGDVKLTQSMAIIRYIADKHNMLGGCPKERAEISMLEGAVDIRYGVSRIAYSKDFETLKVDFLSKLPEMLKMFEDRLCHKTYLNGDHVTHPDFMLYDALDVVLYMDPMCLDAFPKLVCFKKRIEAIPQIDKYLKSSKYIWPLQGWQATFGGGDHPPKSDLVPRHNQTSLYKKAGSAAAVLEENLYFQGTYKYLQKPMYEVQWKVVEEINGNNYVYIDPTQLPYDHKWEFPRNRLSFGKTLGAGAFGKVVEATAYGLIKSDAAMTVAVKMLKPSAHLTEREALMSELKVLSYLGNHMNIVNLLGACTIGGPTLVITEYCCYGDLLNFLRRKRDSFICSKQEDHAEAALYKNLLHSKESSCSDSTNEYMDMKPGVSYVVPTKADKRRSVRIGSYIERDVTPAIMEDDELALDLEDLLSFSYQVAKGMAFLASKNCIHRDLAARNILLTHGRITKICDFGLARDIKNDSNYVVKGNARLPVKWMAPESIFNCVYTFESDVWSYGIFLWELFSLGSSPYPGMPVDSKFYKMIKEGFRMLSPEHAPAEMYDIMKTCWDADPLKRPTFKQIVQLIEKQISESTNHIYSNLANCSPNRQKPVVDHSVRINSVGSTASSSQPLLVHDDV
# RUN DESCRIPTION: biochemical
# RECORDED CONDITIONS: uKIT, enzymatic assay, ATP 2000 μM
READOUT KIND: IC50

Quick note, IC50 for Cc1nc(NC(=O)NC(=O)C(C)(C)C)ccc1Oc1ccnc(-c2cncs2)c1 [Example 131] landed at > 1000 nM

Quick note, IC50 for Cc1ccc(-c2cc(Oc3ccc(NC(=O)NC(=O)C4CCCC4)nc3C)ccn2)cn1 [Example 100] landed at 10 to 100 nM

Quick note, IC50 for Cn1cc(-c2cc(Oc3ccc(NC(=O)NC(=O)CC4CCOCC4)nc3)ccn2)cn1 [Example 4] landed at 100 to 1000 nM

Quick note, IC50 for CCn1cc(-c2cc(Oc3ccc(NC(=O)NC(=O)C(C)(C)OC)nc3)ccn2)cn1 [Example 170] landed at 100 to 1000 nM

Quick note, IC50 for Cc1nc(NC(=O)NC(=O)C(C)(C)C)ccc1Oc1ccnc(-c2c[nH]nn2)c1 [Example 171] landed at > 1000 nM

Quick note, IC50 for CCC(=O)NC(=O)Nc1ccc(Oc2ccnc(-c3cn(C)cn3)c2)cn1 [Example 138] landed at > 1000 nM

Quick note, IC50 for CCC(C)(C)C(=O)NC(=O)Nc1ccc(Oc2ccnc(-c3cnn(C)c3)c2)c(C)n1 [Example 69] landed at 100 to 1000 nM

Quick note, IC50 for COC1(C(=O)NC(=O)Nc2ccc(Oc3ccnc(-c4ccc(C)nc4)c3)cn2)CC1 [Example 126] landed at 100 to 1000 nM

Quick note, IC50 for Cn1cc(-c2cc(Oc3ccc(NC(=O)NC(=O)C4CCCCC4)nc3)ccn2)cn1 [Example 67] landed at < 10 nM

Quick note, IC50 for Cc1cc(NC(=O)NC(=O)C(C)(C)C)nc(C)c1Oc1ccnc(-c2cnn(C)c2)c1 [Example 116] landed at 10 to 100 nM

###

# Test system: M-NFS-60 cells
# RUN DESCRIPTION: cells
# RECORDED CONDITIONS: 67 h, read-out: M-NFS-60 cell proliferation
Some molecules, each annotated with its measured IC50.

[[record]]
molecule = "Cc1cn(-c2cc(Oc3ccc(NC(=O)NC(=O)[C@@H]4C[C@H]5CC[C@@H]4O5)nc3C)ccn2)cn1 (relative stereo)"
study_system = "M-NFS-60 cells"
readout_kind = "IC50"
result = "100 to 1000 nM"

[[record]]
molecule = "COC(C)(C)C(=O)NC(=O)Nc1ccc(Oc2ccnc(-c3ccc(C4CCN(C)CC4)cc3)c2)c(C)n1"
study_system = "M-NFS-60 cells"
readout_kind = "IC50"
result = "< 10 nM"


Quick note, IC50 for Cc1nc(NC(=O)NC(=O)C2(C#N)CC2)ccc1Oc1ccnc(-c2cnn(C)c2)c1 landed at > 1000 nM

Quick note, IC50 for COC1(C(=O)NC(=O)Nc2ccc(Oc3ccnc(-n4cnc(C)c4)c3)cn2)CC1 landed at 100 to 1000 nM

Quick note, IC50 for COC1(C(=O)NC(=O)Nc2ccc(Oc3ccnc(-c4cnc(C)s4)c3)cn2)CC1 landed at 10 to 100 nM

Quick note, IC50 for CCn1cc(-c2cc(Oc3ccc(NC(=O)NC(=O)C(C)(C)OC)nc3)ccn2)cn1 landed at < 10 nM

Quick note, IC50 for Cc1cn(-c2cc(Oc3ccc(NC(=O)NC(=O)C(C)(C)C)nc3)ccn2)cn1 landed at 10 to 100 nM

Quick note, IC50 for Cc1nc(NC(=O)NC(=O)C(C)(C)C)ccc1Oc1ccnc(-c2c[nH]nn2)c1 landed at 10 to 100 nM

Quick note, IC50 for Cn1cc(-c2cc(Oc3ccc(NC(=O)NC(=O)C4(C(F)(F)F)CC4)nc3)ccn2)cn1 landed at 10 to 100 nM

Quick note, IC50 for Cc1nc(NC(=O)NC(=O)C(C)(C)C)ccc1Oc1ccnc(-c2ccc(C3CCN(C)CC3)cc2)c1 landed at < 10 nM

Quick note, IC50 for Cn1cc(-c2cc(Oc3ccc(NC(=O)NC(=O)C(C)(C)C(F)(F)F)nc3)ccn2)cn1 landed at 10 to 100 nM

Quick note, IC50 for Cn1cc(-c2cc(Oc3ccc(NC(=O)NC(=O)C4(C)CCOCC4)nc3)ccn2)cn1 landed at 10 to 100 nM

Quick note, IC50 for Cc1cc(NC(=O)NC(=O)C2CCOCC2)nc(C)c1Oc1ccnc(-c2cnn(C)c2)c1 landed at 10 to 100 nM

###

# STUDY SYSTEM: unphosphorylated c-KIT kinase (uKIT, Seq. ID no. 2) (Homo sapiens, UniProt P10721)
# RUN DESCRIPTION: biochemical
# RECORDED CONDITIONS: uKIT, enzymatic assay, ATP 2000 μM
pIC50: −log10 of the molar value.
Some compounds, each annotated with its measured pIC50.

Illustrative cases are given below, each with its answer.
[[record]]
compound = "Cc1cn(-c2cc(Oc3ccc(NC(=O)NC(=O)C(C)C)nc3C)ccn2)cn1"
readout_kind = "pIC50"
result = "< 6.00"

[[record]]
compound = "Cc1cc(-c2cc(Oc3ccc(NC(=O)NC(=O)C(C)(C)C)nc3C)ccn2)on1"
readout_kind = "pIC50"
result = "< 6.00"

[[record]]
compound = "Cc1nc(NC(=O)NC(=O)C2CC3(CCC3)C2)ccc1Oc1ccnc(-c2cnn(C)c2)c1"
readout_kind = "pIC50"
result = "> 8.00"

[[record]]
compound = "Cc1nc(NC(=O)NC(=O)C2(C#N)CC2)ccc1Oc1ccnc(-c2cnn(C)c2)c1"
readout_kind = "pIC50"
result = "< 6.00"


Quick note, pIC50 for Cc1cc(NC(=O)NC(=O)C2CCOCC2)nc(C)c1Oc1ccnc(-c2cnn(C)c2)c1 landed at 7.00 to 8.00

Quick note, pIC50 for Cc1ccc(-c2cc(Oc3ccc(NC(=O)NC(=O)C4CCOCC4)nc3)ccn2)cn1 landed at < 6.00

Quick note, pIC50 for Cn1cc(-c2cc(Oc3ccc(NC(=O)NC(=O)C4CC5CCC4CC5)nc3)ccn2)cn1 (centres unmarked) landed at > 8.00

Quick note, pIC50 for Cc1cn(-c2cc(Oc3ccc(NC(=O)NC(=O)[C@@H]4C[C@H]5CC[C@@H]4O5)nc3C)ccn2)cn1 (relative stereo) landed at < 6.00

###

Some compounds, each annotated with its measured IC50.
# System: M-NFS-60 cells
# RUN DESCRIPTION: cells
# RECORDED CONDITIONS: 67 h, read-out: M-NFS-60 cell proliferation

Illustrative cases are given below, each with its answer.
[[record]]
compound = "Cc1ccc(-c2cc(Oc3ccc(NC(=O)NC(=O)C4CCOCC4)nc3)ccn2)cn1"
result = "10 to 100 nM"

[[record]]
compound = "Cn1cc(-c2cc(Oc3ccc(NC(=O)NC(=O)CC4CCOCC4)nc3)ccn2)cn1"
result = "< 10 nM"

[[record]]
compound = "Cn1cc(-c2cc(Oc3ccc(NC(=O)NC(=O)C4(C(F)(F)F)CCC4)nc3)ccn2)cn1"
result = "< 10 nM"

[[record]]
compound = "Cn1cc(-c2cc(Oc3ccc(NC(=O)NC(=O)C4CCOCC4)nc3)ccn2)cn1"
result = "10 to 100 nM"

[[record]]
compound = "Cn1cc(-c2cc(Oc3ccc(NC(=O)NC(=O)C4CC5CCC4C5)nc3)ccn2)cn1 (centres unmarked)"
result = "< 10 nM"


Quick note, IC50 for COC1(C(=O)NC(=O)Nc2ccc(Oc3ccnc(-n4cnc(C)c4)c3)cn2)CCCC1 landed at 10 to 100 nM

Quick note, IC50 for CCOC(C)(C)C(=O)NC(=O)Nc1ccc(Oc2ccnc(-c3cnn(C)c3)c2)c(C)n1 landed at 10 to 100 nM

Quick note, IC50 for Cn1cc(-c2cc(Oc3ccc(NC(=O)NC(=O)C45CC6CC(CC(C6)C4)C5)nc3)ccn2)cn1 landed at 10 to 100 nM

###

# STUDY SYSTEM: unphosphorylated PDGFRβ kinase (uPDGFRβ, Seq. ID No. 3) (Homo sapiens, UniProt P09619)
# Sequence (P09619 557-1106): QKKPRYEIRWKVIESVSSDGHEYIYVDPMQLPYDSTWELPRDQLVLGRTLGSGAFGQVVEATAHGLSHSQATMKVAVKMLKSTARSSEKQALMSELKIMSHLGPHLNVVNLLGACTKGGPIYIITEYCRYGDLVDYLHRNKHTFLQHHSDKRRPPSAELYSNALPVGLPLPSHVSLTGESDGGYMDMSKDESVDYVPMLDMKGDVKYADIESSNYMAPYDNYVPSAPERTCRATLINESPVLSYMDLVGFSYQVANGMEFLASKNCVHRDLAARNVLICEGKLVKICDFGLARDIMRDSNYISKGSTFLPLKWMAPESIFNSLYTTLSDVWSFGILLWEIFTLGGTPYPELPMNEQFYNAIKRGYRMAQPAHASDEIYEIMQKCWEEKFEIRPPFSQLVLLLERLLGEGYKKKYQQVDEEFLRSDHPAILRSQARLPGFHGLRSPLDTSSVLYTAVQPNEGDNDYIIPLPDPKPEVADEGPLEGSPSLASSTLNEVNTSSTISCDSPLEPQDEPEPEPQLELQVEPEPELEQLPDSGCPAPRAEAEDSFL
# RUN DESCRIPTION: biochemical
# RECORDED CONDITIONS: uPDGFRb, enzymatic assay, ATP 500 μM
READOUT KIND: IC50

Quick note, IC50 for Cc1nc(NC(=O)NC(=O)C(C)(C)C)ccc1Oc1ccnc(-c2cncs2)c1 landed at > 1000 nM

Quick note, IC50 for Cn1cc(-c2cc(Oc3ccc(NC(=O)NC(=O)C4CC5CCC4CC5)nc3)ccn2)cn1 (centres unmarked) landed at 10 to 100 nM

Quick note, IC50 for CCn1cc(-c2cc(Oc3ccc(NC(=O)NC(=O)C(C)C)nc3C)ccn2)cn1 landed at > 1000 nM

Taken from patent US9382228B2.
